- target: cow CD23 CRD (Bos taurus, UniProt E1BIQ4)
- Construct: gene FCER2; untagged for crystals; C-terminal biotinylation tag LNDIFEAQKIEWHE for solid-phase assays
- Sequence (E1BIQ4 169-302): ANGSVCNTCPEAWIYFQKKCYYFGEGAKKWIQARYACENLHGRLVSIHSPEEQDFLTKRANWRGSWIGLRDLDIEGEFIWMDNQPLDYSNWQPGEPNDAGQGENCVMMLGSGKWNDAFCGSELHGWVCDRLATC
- protocol details: solid-phase competition with horseradish peroxidase reporter, immobilized biotin-tagged CRD
- Format: binding
- condition label: pH 7.8, 2.5 mM CaCl2, 150 mM NaCl, 4 °C; competitive; KI approximates KD; may have been tested as methyl glycoside
attribute measured: Ki (mM)
Respond numerically; units are mM and should not be typed.

Q. Report Ki, nothing else, for this compound: C[C@@H]1OC(O)[C@@H](O)[C@H](O)[C@@H]1O (stereo partly shown)
A. 1.8

----------
- target: cow CD23 CRD (Bos taurus, UniProt E1BIQ4)
- Construct: gene FCER2; untagged for crystals; C-terminal biotinylation tag LNDIFEAQKIEWHE for solid-phase assays
- protocol details: solid-phase competition with horseradish peroxidase reporter, immobilized biotin-tagged CRD
- Type: binding
- condition label: pH 7.8, 2.5 mM CaCl2, 150 mM NaCl, 4 °C; competitive; KI approximates KD
compounds and their reported Ki
Respond numerically; units are mM and should not be typed.

OC[C@H]1OC(O)[C@@H](O)[C@@H](O)[C@@H]1O (some centres unmarked) ... 1.6

Please turn your attention to the following entry.
Q. Report Ki, nothing else, for this compound: CC(=O)N[C@H]1C(O)O[C@H](CO)[C@@H](O)[C@@H]1O (some centres unmarked)
A. 1.1
